test system: OCI-AML2; experiment: cell viability relative to vehicle control; higher = less cytotoxic; conditions: 10 µM; SRSF2 genotype: P95H/wt;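 note: after 48 h exposure read by CellTiter-Glo luminescence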
// returns rule not met unless cell viability is strictly below 90%, in which case rule met

Check out these entries, answers already filled in.
| compound | label_class |
| --- | --- |
| CN(C)Cc1ccc(S(=O)(=O)n2ccc(/C=C/C(=O)NO)c2)cc1 [Resminostat (RAS2410)] | rule met |
| Cc1cc(CS(=O)(=O)c2ccccc2)cc(OCc2ccc(CN3CCC[C@@H]3CO)cc2)c1 | rule not met |
| OCCn1cc(-c2cnc3nnn(Cc4ccc5ncccc5c4)c3n2)cn1 | rule not met |

State whether 90% exceeds cell viability recorded for `Cc1nc(Nc2ncc(C(=O)Nc3c(C)cccc3Cl)s2)cc(N2CCN(CCO)CC2)n1` .
rule met

State whether 90% exceeds cell viability recorded for `CC(=O)O/N=C1\C(=O)N(Cc2cc(Cl)ccc2Cl)c2ccc(Cl)cc21` .
rule met
